This collection of values is drawn from ChEMBL document CHEMBL2073778.

Tested on: Solute carrier organic anion transporter family member 2A1 (Homo sapiens)
Assay overview: TP_TRANSPORTER: inhibition of PGE2 uptake in PGT-expressing HeLa cells
Measurement name: pKi
Here pKi is given on a logarithmic scale as minus log10 of the concentration in mol/L.

Some compounds with recorded pKi:
CC(=O)C(=O)O [PYRUVATE] ... 1.59
O=P(O)(O)OC[C@H]1O[C@@](O)(COP(=O)(O)O)[C@@H](O)[C@@H]1O [FRUCTOSE 1,6-DIPHOSPHATE] ... 1.29
O=C(OP(=O)(O)O)C(O)COP(=O)(O)O (configuration not stated) ... 1.24
O=C[C@H](O)COP(=O)(O)O ... 1.82
O=P(O)(O)OC[C@H]1O[C@@H](O)[C@H](O)[C@@H](O)[C@@H]1O ... 1.51
C[C@@H](O)C(=O)O [D-LACTIC ACID] ... 1.32

IN: API: value(readout= pKi, system= Solute carrier organic anion transporter family member 2A1 (Homo sapiens), query= C=C(OP(=O)(O)O)C(=O)O [PHOSPHOENOLPYRUVATE] )
OUT: 1.89
